- Experiment Summary: Volume of distribution at steady state in C57BL mouse at 10 mg/kg, po or 2 mg/kg, iv
- Type: ADME, organism-based
- Conditions: in vivo
Measured Metric: Vdss (L/kg)

Recorded Vdss, per entry:
>>> numeric_result("CCn1c(CO)nn(-c2cc3c(C(C)C)cn(-c4ccccc4C)c(=O)c3cc2F)c1=O")
1.64
>>> numeric_result("CCn1c(CO)nn(-c2cc3c(C(C)C)nn(-c4ccccc4C)c(=O)c3cc2F)c1=O")
1.94

(a) CCn1c(CO)nn(-c2cc3c(C(C)C)cc(-c4ccccc4C)c(=O)n3cc2F)c1=O
(b) CCn1c(CO)nn(-c2cc3c(C(C)C)nn(-c4c(F)cccc4Cl)c(=O)c3cc2F)c1=O
Among a and b , which shows a numerically higher Vdss result? Field: selected label. Fill in the label of the entry you choose.
a
(a: 2.12 L/kg, b: 1.43 L/kg)
